Assay: Luciferase activity of purified RLuc mutants (light output integrated over 10 s, luminometer)
Format: biochemical
Settings: coelenterazine-n; relative to native enzyme

molecule | Activity (relative to RLuc) n
C124A/F261L/F262L: RLuc mutant C124A/F261L/F262L (protein) MASKVYDPEQRKRMITGPQWWARCKQMNVLDSFINYYDSEKHAENAVIFLHGNAASSYLWRHVVPHIEPVARCIIPDLIGMGKSGKSGNGSYRLLDHYKYLTAWFELLNLPKKIIFVGHDWGAALAFHYSYEHQDKIKAIVHAESVVDVIESWDEWPDIEEDIALIKSEEGEKMVLENNFFVETMLPSKIMRKLEPEEFAAYLEPFKEKGEVRRPTLSWPREIPLVKGGKPDVVQIVRNYNAYLRASDDLPKMFIESDPGLLSNAIVEGAKKFPNTEFVKVKGLHFSQEDAPDEMGKYIKSFVERVLKNEQ | 0.00
